Assay: Quantitative High-Throughput drug screen in 47 multiple myeloma cell lines against the NCATS MIPE library collection: KMS34_JCRB cell viability assay (AID 1918985); note: nearly all actives have a fitted effect of over 40% in size
Details: KMS34 myeloma viability, CellTiter-Glo ATP luminescence, 48 h; series mostly up to 45.8 µM
Text: PI: Beverly A. Mock Ph.D. Laboratory of Cancer Biology and Genetics, Center for Cancer Research, National Cancer Institute, National Institute of Health, Bethesda, Maryland […] 5; Detector; 425V; Luminescence; Viewlux PerkinElmer. […] 1. […] Briefly, the corresponding myeloma cell lines were screened in 1,536-well plates with 500 cells, 5-uL per well for inhibition of cell viability (assessed by measuring ATP levels with CellTiterGlo). […]
Records with an inconclusive call do not appear. Active and inactive are the calls of the source. Calls come from the whole dose curve; as a rule, active = well fitted cell-killing curve with a large enough effect; inconclusive = small, poorly fitted or top-dose-only effect, or effect the other way; inactive = no such curve, though single readings can be large or run the other way.
Pick from active, inactive when you respond.

What did this assay record as the result for COc1cc2c(Oc3ccc(-c4cnc(Nc5ccc(F)cc5)n(C)c4=O)cc3F)ccnc2cc1OCCCN1CCOCC1 ? active

Another compound to look at: Cc1cn2cc(C(=O)N(C)CCO)cc(N[C@@H]3CCOc4cccc(C)c43)c2n1 inactive

Another compound to look at: Cc1cc(C(=O)N2CCN(c3cccc(Cl)c3)CC2)n(-c2ccccc2)n1 active

Another compound to look at: COc1cc(=C2C=c3ccccc3=N2)[nH]c1=Cc1[nH]c(C)cc1C active

Another compound to look at: O=C(Cc1ccc(-c2ccc(OCCN3CCOCC3)cc2)cn1)NCc1ccccc1 active

Another compound to look at: C=CC(=O)Nc1cc2c(Nc3ccc(F)c(Cl)c3)ncnc2cc1OCCCN1CCOCC1 active

Another compound to look at: O=C(Nc1cc(C(F)(F)F)cc(C(F)(F)F)c1)c1cc(Cl)ccc1O active

Another compound to look at: C[C@H]1C[C@@H]2[C@@H]([C@@H](O)C[C@@]3(C)[C@H]2CC[C@]3(O)C(=O)CO)[C@@]2(C)C=CC(=O)C=C12 inactive

Another compound to look at: COc1cc(C(=O)N2CCC(N3CCN(C)CC3)CC2)ccc1Nc1ncc2c(n1)N(C)c1ccccc1C(=O)N2C active

Another compound to look at: CCCCc1nc2cc(C=CC(=O)NO)ccc2n1CCN(CC)CC active

Another compound to look at: COc1ccc(C(=O)CC2(O)C(=O)Nc3c(Cl)ccc(Cl)c32)cc1 (stereo unspecified) active

Another compound to look at: CC1(O)CC(c2nc(-c3ccc4ccc(-c5ccccc5)nc4c3)c3c(N)nccn23)C1 (stereo unspecified) active

Another compound to look at: COc1ccc2c(OCc3nnc4ccc(-c5ccccc5)nn34)ccnc2c1 inactive

Another compound to look at: N#CCNC(=O)c1ccc(-c2ccnc(Nc3ccc(N4CCOCC4)cc3)n2)cc1 active

Another compound to look at: CCC1=C[C@@H]2CN(C1)Cc1c([nH]c3ccccc13)[C@@](C(=O)OC)(c1cc3c(cc1OC)N(C)[C@@H]1[C@@](O)(C(=O)OC)[C@H](OC(C)=O)[C@]4(CC)C=CCN5CC[C@]31[C@@H]54)C2 active

Another compound to look at: O=C(O)CO.[NH2-].[NH2-].[Pt+2] inactive

Another compound to look at: CCOc1cc2ncc(C#N)c(Nc3ccc(F)c(Cl)c3)c2cc1NC(=O)C=CCN(C)C active

Another compound to look at: C1=CCOCc2cc(ccc2OCCN2CCCC2)Nc2nccc(n2)-c2cccc(c2)OCC1 active

Another compound to look at: CC1(C)CCC(c2ccc(Cl)cc2)=C(CN2CCN(c3ccc(C(=O)NS(=O)(=O)c4ccc(N[C@H](CCN5CCOCC5)CSc5ccccc5)c(S(=O)(=O)C(F)(F)F)c4)cc3)CC2)C1 active

Another compound to look at: C=C1C(=CC=C2CCC[C@]3(C)[C@@H]([C@H](C)C=C[C@H](C)C(C)C)CC[C@@H]23)C[C@@H](O)C[C@@H]1O active

Another compound to look at: Cc1cc(Nc2nc(N[C@@H](C)c3ccc(F)cc3)c(C#N)cc2F)n[nH]1 active

Another compound to look at: CC(C)(C)OC(=O)Nc1ccc(-c2cc(C(=O)NCCCCCCC(=O)NO)no2)cc1 active

Another compound to look at: Cc1ccc(S(=O)(=O)Nc2cc(Cl)ccc2C(=O)Nc2nc(-c3ccccc3)cs2)cc1 active

Another compound to look at: COc1c(N2C[C@@H]3CCCN[C@H]3C2)c(F)cc2c(=O)c(C(=O)O)cn(C3CC3)c12 active

Another compound to look at: COc1ccc2c(c1)CC[C@@H](CN(C)CC(=O)O)[C@H]2c1ccccc1 active

Another compound to look at: O=C(c1ccc(Nc2nccc(-c3cc4ccccc4s3)n2)cc1)N1CCC(N2CCCC2)CC1 active

Another compound to look at: O=C(C=Cc1cccnc1)NCCCCC1CCN(C(=O)c2ccccc2)CC1 active

Another compound to look at: C#Cc1cccc(Nc2ncnc3cc(OC)c(OCCCCCCC(=O)NO)cc23)c1 active

Another compound to look at: N#Cc1c(O)c2c(-c3ccc(-c4ccccc4O)cc3)csc2[nH]c1=O inactive

Another compound to look at: Cn1cc(-c2[nH]c3cc(NC(=O)[C@H](N)C4CCCCC4)cc4c3c2C=NNC4=O)cn1 active

Another compound to look at: CC(NCc1ccc2c(c1)nc(NC(=O)c1ccc(-c3cn[nH]c3)s1)n2CC(C)(C)O)C(C)(C)C (stereo unspecified) active

Another compound to look at: O=C(O)c1ccc2c(c1)nc(Nc1cccc(Cl)c1)c1ccncc12 active

Another compound to look at: CC=CC1=C(C(=O)O)N2C(=O)[C@H](NC(=O)[C@H](N)c3ccc(O)cc3)[C@@H]2SC1 inactive

Another compound to look at: O=C1CCC[C@@H]2[C@H]3CCC[N+]4([O-])CCC[C@@H](CN12)[C@@H]34 (stereo partly specified) inactive

Another compound to look at: c1cc(-c2cnn3cc(-c4ccc(OCCN5CCCCC5)cc4)cnc23)ccn1 active

Another compound to look at: CC(=O)OCC(=O)[C@@]1(O)[C@H](C)C[C@H]2[C@@H]3C=C(C)C4=Cc5c(cnn5-c5ccccc5)C[C@]4(C)[C@@H]3[C@@H](O)C[C@@]21C active

----------
test: Quantitative High-Throughput drug screen in 47 multiple myeloma cell lines against the NCATS MIPE library collection: KMS21BM_JCRB cell viability assay (AID 1918974); details: ATP luminescence, 48 h
Inconclusive results are not listed. Activity calls are given as the source filed them. Calls come from the whole dose curve; as a rule, active = well fitted cell-killing curve with a large enough effect; inconclusive = small, poorly fitted or top-dose-only effect, or effect the other way; inactive = no such curve, though single readings can be large or run the other way.
Pick from 1 (yes) = active, 0 (no) = inactive when you respond.

What did this assay record as the result for COc1cc(Nc2ncc(F)c(Nc3ccc4c(n3)N(COP(=O)(O)O)C(=O)C(C)(C)O4)n2)cc(OC)c1OC ? 1 (yes)

Another molecule to look at: OCCCNc1cc(-c2ccnc(Nc3cccc(Cl)c3)n2)ccn1 1 (yes)

Another molecule to look at: CCn1cc(-c2ccnc3[nH]c(-c4cccc(CN(C)C)c4)cc23)c(-c2ccc(NC(=O)N(C)C)cc2)n1 1 (yes)

Another molecule to look at: CC(C)(C)OC(=O)Nc1ccc(-c2cc(C(=O)NCCCCCCC(=O)NO)no2)cc1 1 (yes)

Another molecule to look at: Cc1ccc(C(=O)Nc2ccc(CN3CCN(C)CC3)c(C(F)(F)F)c2)cc1C#Cc1cnc2cccnn12 1 (yes)

Another molecule to look at: CC(C)(O)c1cc2nc(-c3cnc(N)nc3)nc(N3CCOCC3)c2s1 1 (yes)

Another molecule to look at: C=CCn1c(=O)c2cnc(Nc3ccc(N4CCN(C)CC4)cc3)nc2n1-c1cccc(C(C)(C)O)n1 1 (yes)

Another molecule to look at: Cc1nc(N)ncc1-c1nc(N2CCOCC2)c2sc(C(C)(C)O)cc2n1 1 (yes)

Another molecule to look at: O=C(NCCCNc1nc(Nc2cccc(NC(=O)N3CCCC3)c2)ncc1I)c1cccs1 0 (no)

Another molecule to look at: CC1(C)OC2=C(C(=O)c3ccccc3C2=O)[C@H](NCc2ccccc2)[C@H]1O 1 (yes)

Another molecule to look at: Cc1c(C)n(Cc2ccc(-c3ccccc3C(=O)O)cc2)c2ccc(C(=O)N[C@@H](C)c3ccc([N+](=O)[O-])cc3)cc12 1 (yes)

Another molecule to look at: CC(C)[C@H](C(=O)Nc1ccc(C(=O)NO)cc1)c1ccccc1 1 (yes)

Another molecule to look at: CC(C)(C)c1cc(C(C)(C)C)c(NC(=O)c2c[nH]c3ccccc3c2=O)cc1O 0 (no)

Another molecule to look at: Nc1ccccc1NC(=O)c1ccc(CNc2nccc(-c3cccnc3)n2)cc1 1 (yes)

Another molecule to look at: Nc1ccccc1NC(=O)c1ccc(CNC(=O)OCc2cccnc2)cc1 1 (yes)

Another molecule to look at: CCC1=C[C@@H]2CN(C1)Cc1c([nH]c3ccccc13)[C@@](C(=O)OC)(c1cc3c(cc1OC)N(C)[C@@H]1[C@@](O)(C(=O)OC)[C@H](OC(C)=O)[C@]4(CC)C=CCN5CC[C@]31[C@@H]54)C2 1 (yes)

Another molecule to look at: O=C(O)[C@H](Cc1c[nH]c2ccccc12)N1C(=O)c2ccccc2C1=O 0 (no)

Another molecule to look at: CN(C)Cc1c(C(=O)NCCOc2ccc(C(=O)NO)cc2)oc2ccccc12 1 (yes)

Where do the numbers come from? From PubChem BioAssay (NCATS).
